- System: MDA-MB-468 cancer cell line
- experiment notes: Cell growth assay (WST-8)
- Type: cell-based
- reported conditions: Homo sapiens, MDA-MB-468, 96 h; WST-8, 4 days; read-out: Inhibition of cell growth IC50, MDA-MB-468 cancer cell line
pIC50: −log10 of the molar value.
result type: pIC50

>>> measurement("NC(=O)CC[C@H](NC(=O)[C@@H]1CCC2CCCC[C@H](NC(=O)/C=C/c3ccc(OP(=O)(O)O)cc3)C(=O)N21)C(=O)NCc1ccccc1 (stereo partly drawn)")
"< 4.00"
>>> measurement("NCCCCNC(=O)[C@@H]1CC[C@@H]2CCCC[C@H](NC(=O)[C@H](Cc3ccc(OP(=O)(O)O)cc3)NC(=O)OCc3ccccc3)C(=O)N21")
"< 4.00"
>>> measurement("CP(=O)(O)Cc1ccc(CCC(=O)N[C@H]2CCCCC3CC[C@@H](C(=O)N[C@@H](CCC(N)=O)C(=O)NCc4ccccc4)N3C2=O)cc1 (stereo partly drawn)")
"< 4.00"
